Study target: T1, biotinylated extracellular catalytic domain of human angiotensin-converting enzyme 2 (hACE2), produced in … (human, UniProt Q9BYF1 19-615)
T1 construct: also called biotinylated hACE2
T1 sequence (Q9BYF1 19-615): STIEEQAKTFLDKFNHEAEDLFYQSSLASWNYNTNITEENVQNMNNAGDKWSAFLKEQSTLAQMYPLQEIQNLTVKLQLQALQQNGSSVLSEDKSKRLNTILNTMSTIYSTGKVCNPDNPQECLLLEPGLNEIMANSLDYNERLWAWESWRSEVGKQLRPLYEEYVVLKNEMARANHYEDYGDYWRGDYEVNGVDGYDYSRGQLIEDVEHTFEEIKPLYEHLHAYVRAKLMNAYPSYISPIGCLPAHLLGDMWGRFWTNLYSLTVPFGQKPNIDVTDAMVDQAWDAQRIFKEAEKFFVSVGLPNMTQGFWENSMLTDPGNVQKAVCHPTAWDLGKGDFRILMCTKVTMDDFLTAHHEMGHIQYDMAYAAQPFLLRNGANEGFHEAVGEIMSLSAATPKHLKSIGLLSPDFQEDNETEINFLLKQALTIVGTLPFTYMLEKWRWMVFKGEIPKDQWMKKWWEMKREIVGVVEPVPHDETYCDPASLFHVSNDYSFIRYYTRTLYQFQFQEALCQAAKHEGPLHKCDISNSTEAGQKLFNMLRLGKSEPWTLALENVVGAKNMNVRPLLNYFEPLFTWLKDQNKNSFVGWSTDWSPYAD
Assay remarks: flow cytometry on cells; yeast surface titration: yeast cells displaying the ligand incubated with soluble biotinylated hACE2 (100 pM to 3 uM), at least 1 h, room temperature (25 °C, pH 7.4); binding/display MFI, one-site fit; apparent KD
Measurement conditions: one partner purified
Where no end group is shown, it is not given here.
Property measured: Kd (nM)
Numbers only here, please. The scale is nM.

What value of Kd has been recorded for this entry: ACEPLGFNRWICSG (also: one-ring macrocycle, closure not given here) [yeast-displayed 'one-ring' macrocyclic peptide GR1.3] 53.8
